measurement notes: Therapeutic index expressed as the ratio of IC50 to EC50.
condition summary: read-out: Therapeutic index
Consider the cut-off 1. If the recorded selectivity ratio is strictly smaller, the label is Condition met; if not, the label is Condition not met.

[
  {
    "molecule": "COC(=O)[C@]12OC[C@]34[C@H]([C@@H](O)[C@@H]1O)[C@@]1(C)C=C(O[C@@H]5O[C@H](CO)[C@@H](O)[C@H](O)[C@H]5O)C(=O)[C@@H](C)[C@@H]1C[C@H]3OC(=O)[C@H](OC(=O)/C=C(\\C)C(C)(C)OC(C)=O)[C@@H]24 [Yadanzioside G]",
    "class name": "Condition not met"
  },
  {
    "molecule": "CC(C)CC(=O)O[C@H]1C(=O)O[C@@H]2C[C@H]3[C@H](C)C(=O)C(O[C@@H]4O[C@H](CO)[C@@H](O)[C@H](O)[C@H]4O)=C[C@]3(C)[C@H]3[C@@H](O)[C@H](O)[C@]4(C(=O)O)OC[C@]32[C@@H]14 [BRUCEOSIDE E]",
    "class name": "Condition met"
  },
  {
    "molecule": "COC(=O)C(C)[C@@H]1CC(=O)O[C@@H]2C[C@H]3C(C)=CC(=O)[C@@H](O)[C@]3(C)[C@H]3C(=O)OC[C@]321 (stereo partly drawn) [AILANTINOL A]",
    "class name": "Condition not met"
  },
  {
    "molecule": "COC(=O)[C@]12OC[C@]34[C@H]([C@@H](O)[C@@H]1O)[C@@]1(C)CC(=O)C(O[C@@H]5O[C@H](CO)[C@@H](O)[C@H](O)[C@H]5O)=C(C)[C@@H]1C[C@H]3OC(=O)[C@H](OC(=O)/C=C(\\C)C(C)(C)O)[C@@H]24 [Yadanzioside L]",
    "class name": "Condition not met"
  },
  {
    "molecule": "CC1=CC(=O)[C@@H](O)[C@]2(C)[C@H]3[C@@]4(O)C(=O)OC[C@@]35[C@@H](C[C@@H]12)OC(=O)C[C@H]5[C@H]4C [SHINJUDILACTONE]",
    "class name": "Condition not met"
  },
  {
    "molecule": "Nc1ccn([C@H]2CC[C@@H](CO)O2)c(=O)n1 [ZALCITABINE]",
    "class name": "Condition not met"
  },
  {
    "molecule": "COC(=O)[C@]12OC[C@]34[C@H]([C@@H](O)[C@@H]1O)[C@@]1(C)C=C(O[C@@H]5O[C@H](CO)[C@@H](O)[C@H](O)[C@H]5O)C(=O)[C@@H](C)[C@@H]1C[C@H]3OC(=O)[C@H](OC(=O)CC(C)C)[C@@H]24 [Yadanzioside A]",
    "class name": "Condition not met"
  },
  {
    "molecule": "COC(=O)[C@]12OC[C@]34[C@H]([C@@H](O)[C@@H]1O)[C@@]1(C)C(=O)C(O[C@@H]5O[C@H](CO)[C@@H](O)[C@H](O)[C@H]5O)=C[C@@H](C)[C@@H]1C[C@H]3OC(=O)[C@H](OC(=O)/C=C(\\C)C(C)(C)OC(C)=O)[C@@H]24 [Bruceantinoside C]",
    "class name": "Condition met"
  },
  {
    "molecule": "CC(=O)OC(C)(C)/C(C)=C/C(=O)O[C@H]1C(=O)O[C@@H]2C[C@H]3[C@H](C)C(=O)C(O[C@@H]4O[C@H](CO)[C@@H](O)[C@H](O)[C@H]4O)=C[C@]3(C)[C@H]3[C@@H](O)[C@H](O)[C@@]4(C(=O)O)OC[C@]32[C@@H]14 [Bruceoside-F]",
    "class name": "Condition not met"
  },
  {
    "molecule": "COC(=O)[C@]12OC[C@]34[C@H]([C@@H](O)[C@@H]1O)[C@@]1(C)CC(=O)C(O[C@@H]5O[C@H](CO)[C@@H](O)[C@H](O)[C@H]5O)=C(C)[C@@H]1C[C@H]3OC(=O)[C@H](OC(=O)CC(C)C)[C@@H]24 [Yadanzioside B]",
    "class name": "Condition met"
  },
  {
    "molecule": "CC1=CC(=O)[C@@H](O)[C@@]2(C)C1C[C@H]1OC(=O)C[C@H]3[C@H](C)[C@H](O)C(=O)[C@@H]2[C@@]13CO (stereo partly drawn)",
    "class name": "Condition not met"
  },
  {
    "molecule": "C[C@@H]1C[C@H](O)C(=O)[C@]2(C)[C@H]3[C@H](O)C(=O)[C@H](C)[C@@H]4CC(=O)O[C@H](C[C@@H]12)[C@]34C [AMAROLIDE]",
    "class name": "Condition not met"
  },
  {
    "molecule": "COC(=O)[C@]12OC[C@]34[C@H]([C@@H](O)[C@@H]1O)[C@@]1(C)C=C(O[C@@H]5O[C@H](CO)[C@@H](O)[C@H](O)[C@H]5O)C(=O)[C@@H](C)[C@@H]1C[C@H]3OC(=O)[C@H](OC(C)=O)[C@@H]24 [YADANZIOSIDE F]",
    "class name": "Condition not met"
  },
  {
    "molecule": "CC(=O)O[C@@H]1C(=O)[C@H](C)[C@@H]2CC(=O)O[C@@H]3C[C@H]4[C@H](C)CC(O)C(=O)[C@]4(C)[C@@H]1[C@@]32C (stereo partly drawn)",
    "class name": "Condition not met"
  }
]

---

measurement notes: Therapeutic index expressed as the ratio of IC50 to EC50; No effect
readout label: Therapeutic index

[
  {
    "compound": "COC(=O)[C@]12OC[C@]34[C@H]([C@@H](O)[C@@H]1O)[C@@]1(C)C(=O)C(O[C@@H]5O[C@H](CO)[C@@H](O)[C@H](O)[C@H]5O)=C[C@@H](C)[C@@H]1C[C@H]3OC(=O)[C@H](OC(=O)/C=C(\\C)C(C)C)[C@@H]24 [Yadanzioside N]",
    "readout label": "Therapeutic index",
    "measured": "Not Active"
  },
  {
    "compound": "COC(=O)[C@]12OC[C@]34[C@H]([C@@H](O)[C@@H]1O)[C@@]1(C)C=C(O[C@@H]5O[C@H](CO)[C@@H](O)[C@H](O)[C@H]5O)C(=O)[C@@H](C)[C@@H]1C[C@H]3OC(=O)[C@H](OC(=O)/C=C(\\C)C(C)(C)O)[C@@H]24 [YADANZIOSIDE C]",
    "readout label": "Therapeutic index",
    "measured": "Not Active"
  }
]

---

measurement notes: Therapeutic index expressed as the ratio of IC50 to EC50.
condition summary: read-out: Therapeutic index
The entries below are paired with their reported selectivity ratio.
readout label: selectivity ratio

[
  {
    "compound": "COC(=O)[C@]12OC[C@]34[C@H]([C@@H](O)[C@@H]1O)[C@@]1(C)CC(=O)C(O[C@@H]5O[C@H](CO)[C@@H](O)[C@H](O)[C@H]5O)=C(C)[C@@H]1C[C@H]3OC(=O)[C@H](OC(=O)/C=C(\\C)C(C)C)[C@@H]24 [Yadanzioside P]",
    "measured": 1
  },
  {
    "compound": "COC(=O)[C@]12OC[C@]34[C@H]([C@@H](O)[C@@H]1O)[C@@]1(C)CC(=O)C(O[C@@H]5O[C@H](CO)[C@@H](O)[C@H](O)[C@H]5O)=C(C)[C@@H]1C[C@H]3OC(=O)[C@H](OC(=O)C=C(C)C)[C@@H]24 [Bruceoside-B]",
    "measured": 1
  },
  {
    "compound": "C=C1[C@H](O)[C@]2(O)OC[C@]34[C@H]2[C@@]2(C)[C@H](O)[C@@H](O)C=C(C)[C@@H]2C[C@H]3OC(=O)C[C@@H]14 [SHINJULACTONE A]",
    "measured": 1
  },
  {
    "compound": "COC(=O)[C@@]12OC[C@]34[C@H]([C@@H](O)[C@@H]1O)[C@@]1(C)C=C(O[C@@H]5O[C@H](CO)[C@@H](O)[C@H](O)[C@H]5O)C(=O)[C@@H](C)[C@@H]1C[C@H]3OC(=O)[C@H](OC(=O)C=C(C)C)[C@@H]24 [BRUCEOSIDE A]",
    "measured": 1
  }
]
